The following compounds are shown together with reported fluorescence slope values.
Measurement Target: Voltage-gated potassium channel subunit beta-2 (Rattus norvegicus) (UniProt P62483)
Sequence (P62483 whole entry, looked up): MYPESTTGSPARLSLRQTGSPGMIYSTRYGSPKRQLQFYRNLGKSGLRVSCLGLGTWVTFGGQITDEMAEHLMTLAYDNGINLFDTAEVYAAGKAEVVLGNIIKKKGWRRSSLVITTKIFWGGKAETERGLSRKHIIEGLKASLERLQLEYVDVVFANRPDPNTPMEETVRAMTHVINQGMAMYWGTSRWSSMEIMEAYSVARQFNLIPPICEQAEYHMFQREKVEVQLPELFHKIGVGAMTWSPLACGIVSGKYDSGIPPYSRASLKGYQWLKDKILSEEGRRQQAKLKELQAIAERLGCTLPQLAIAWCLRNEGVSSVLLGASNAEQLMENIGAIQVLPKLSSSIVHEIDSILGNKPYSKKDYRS
Method: KvBeta enzyme negative modulators, primary screen, biochemical, NADPH fluorescence (AID 622);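 also: slope of raw intensity against log time taken from 70 to 1610 s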
Assay Setup: recombinant KvBeta, 4-cyanobenzaldehyde reduction, at 10 µM, stronger effect = higher value
Simply state the number, no unit and no words.

{"Compound": "CCOC(=O)c1ccc(CC2S/C(=C(\\C#N)C(C)=O)NC2=O)cc1 (stereo unspecified)", "fluorescence slope": -0.384}
{"Compound": "COc1ccc(CCN(C)CCCC(C#N)(c2cc(OC)c(OC)c(OC)c2)C(C)C)cc1OC (stereo unspecified)", "fluorescence slope": -0.466}

Continue with the next compound.
Quick one: fluorescence slope for `CC1(C)Cc2c(sc3nc4n(c(=N)c23)CCCCC4)CO1` ?
-0.414

----------
Method: DUSP6 inhibitors restoring Erk phosphorylation by chemical complementation, primary imaging in DUSP6-transfected HeLa (AID 609)
Assay Setup: HeLa MKP-3 transfected, phospho-Erk imaging KS statistic; measured here: cell density z-score; at 10 µM; cells stimulated with TPA for 15 min
Hi, to clarify the labels: Condition met covers z-score from 0.9 upward, Condition not met covers anything below 0.9.

See these solved cases before continuing.
{"Compound": "COc1ccc(-c2cc(-c3ccccc3)n3ncnc3n2)cc1", "Discrete Label": "Condition met"}
{"Compound": "CCCOc1ccc(/C(O)=C2/C(=O)C(=O)N(CCCn3ccnc3)C2c2cccs2)cc1 (stereo unspecified)", "Discrete Label": "Condition not met"}
{"Compound": "O=C(NC1CCCCC1)Nn1c(-c2ccccc2)nc2ccccc2c1=O", "Discrete Label": "Condition not met"}

For this compound, is measured z-score 0.9 or higher? `COc1ccc2c(=O)c(-c3nc(C)cs3)coc2c1`
Condition met

Note, next up: COC(=O)CN1C2(C#N)CCCCC2CC2CCCCC21C#N (stereo unspecified)
Condition not met

----------
Method: inhibitors of E-selectin induction by TNFa, primary screen, imaging, HUVEC, immunofluorescence, MLSMR starter and 10KST1 sets (AID 487);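 also: 100% = median nuclei count of all wells on the same plate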
Assay Setup: HUVEC TNFalpha-induced E-selectin immunofluorescence imaging, at 2 µM; measured here: cell number, toxicity
Experimental Endpoint: nuclei count (%)
Record the value in %, omitting the unit from your answer.

Here are 2 molecules together with their reported answers.
{"Molecule": "CC1(C)Cc2c(sc3nc4n(c(=N)c23)CCC4)CO1", "Experimental Endpoint": "nuclei count", "Measurement": 164}
{"Molecule": "COc1cccc(C2/C(=C(/O)c3cnn(-c4ccccc4)c3C)C(=O)C(=O)N2CCN(C)C)c1OC (centres undefined)", "Experimental Endpoint": "nuclei count", "Measurement": 152}

Quick one: nuclei count for CCOC(=O)CC(C#N)c1cn(C)c2ccccc12 (centres undefined) ?
135

Note, next up: CN(C)c1ccc(C=NCCC2(O)CCOC(C)(C)C2)cc1 (centres undefined)
173

Note, next up: `CCOC(=O)c1c(SC)nc(SC)c2c1CCC2`
182

Note, next up: `c1ccc2c(c1)[nH]c1c(N3CCC4(CC3)OCCO4)ncnc12`
119

----------
Method: PubChem AID 1714;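 also: raw slope of fluorescence over initial fluorescence between 10 and 20 s after thallium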
Assay Setup: HEK293-KCC2 + bumetanide/ouabain, thallium flux FluoZin2; at 10 µM
The list shows a part of the results. Results filed as inconclusive are left out. Activity calls are given as the source filed them.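 How the source made its calls: active means thallium entry rate above the same plate's blocked-transporter control wells by more than 3 SD; inconclusive means the two repeat wells disagree; inactive means the rest.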
Use one of these outcomes when replying: Y (active), N (inactive)

See these solved cases before continuing.
{"Molecule": "O=C(CN(c1cccc(Cl)c1)S(=O)(=O)c1ccccc1)NN=C1CCCC1", "Discrete Label": "N"}
{"Molecule": "O=C(Cn1c(-c2ccc(Cl)cc2)noc1=O)N1CCN(c2ccccc2F)CC1", "Discrete Label": "N"}
{"Molecule": "Cc1ccccc1-c1n[nH]c(=S)n1/N=C/c1ccc(-c2ccccc2Br)o1", "Discrete Label": "Y"}
{"Molecule": "CCCCn1c(=S)[nH]c2ncccc2c1=O", "Discrete Label": "Y"}
{"Molecule": "O=C(CSCc1ccccc1)N1CCc2ccccc21", "Discrete Label": "N"}

Test call for this molecule, please: `C/C(=N\NC(=S)NC1CCCCC1)c1ccc(C)o1`
Y

Note, next up: `CCOc1ccc(NC(=O)CN(C)CC(=O)Nc2cccc(Cl)c2C)cc1OCC`
N

Note, next up: `COc1cccc(-c2nc(S(=O)(=O)c3ccccc3)c(N3CCOCC3)o2)c1`
N

Note, next up: `CN(C)c1nc(=Nc2cccc(Cl)c2)ss1`
Y

Note, next up: `Fc1ccc(COc2cccc(-c3n[nH]c(=S)o3)c2)cc1`
Y

Note, next up: `C=CCn1c(=S)[nH]c2scc(-c3ccco3)c2c1=O`
Y

Note, next up: `O=[N+]([O-])c1c(NCCO)cc(Sc2nc3ccccc3s2)c2nonc12`
Y
